Biological target: bacterial NOX5 (Cylindrospermum stagnale)
observationType: IC50 (µM)
Field: numeric (µM). Do not append units.

// lookup IC50 for c1ccc2c(c1)[I+]c1ccccc1-2
3.28

====

Target: human NOX2 (Homo sapiens, UniProt P04839)
Sequence (P04839 2-570 limits assumed): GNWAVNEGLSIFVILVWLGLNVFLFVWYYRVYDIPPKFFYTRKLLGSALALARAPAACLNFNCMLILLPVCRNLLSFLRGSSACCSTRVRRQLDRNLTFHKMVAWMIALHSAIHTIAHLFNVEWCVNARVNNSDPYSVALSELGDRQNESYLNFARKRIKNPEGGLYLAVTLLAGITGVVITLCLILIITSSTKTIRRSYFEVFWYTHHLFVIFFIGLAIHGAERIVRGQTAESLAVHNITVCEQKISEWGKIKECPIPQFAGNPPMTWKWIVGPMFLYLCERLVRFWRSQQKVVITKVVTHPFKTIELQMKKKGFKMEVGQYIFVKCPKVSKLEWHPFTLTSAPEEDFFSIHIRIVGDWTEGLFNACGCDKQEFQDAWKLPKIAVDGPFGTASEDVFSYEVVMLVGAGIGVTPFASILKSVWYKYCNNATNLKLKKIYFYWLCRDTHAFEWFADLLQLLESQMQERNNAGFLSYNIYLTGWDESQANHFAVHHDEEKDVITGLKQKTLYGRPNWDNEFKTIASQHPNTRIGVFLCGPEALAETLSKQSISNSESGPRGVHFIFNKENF
Sequence (P13498 2-195 partner limits assumed): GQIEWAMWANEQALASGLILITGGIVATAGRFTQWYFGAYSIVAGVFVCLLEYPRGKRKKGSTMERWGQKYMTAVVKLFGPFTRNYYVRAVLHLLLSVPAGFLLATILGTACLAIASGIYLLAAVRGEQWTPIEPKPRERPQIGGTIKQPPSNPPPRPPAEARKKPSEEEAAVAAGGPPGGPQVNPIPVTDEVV
Assay: Initial evaluation on NOX2 membrane preparations
Format: biochemical
Conditions: 100 μM compound, membranes
observationType: inhibition of NOX2 (in words)

c1ccc2c(c1)[I+]c1ccccc1-2 ... full
Cc1ccc(C(=O)Nc2ccc(S(=O)(=O)O)c3cc(S(=O)(=O)O)cc(S(=O)(=O)O)c23)cc1NC(=O)c1cccc(NC(=O)Nc2cccc(C(=O)Nc3cc(C(=O)Nc4ccc(S(=O)(=O)O)c5cc(S(=O)(=O)O)cc(S(=O)(=O)O)c45)ccc3C)c2)c1 ... full
O=c1c2ccccc2[se]n1-c1ccccc1 ... full
CC1=C(O)C(=O)C=C2C1=CC=C1[C@@]2(C)CC[C@@]2(C)[C@@H]3C[C@](C)(C(=O)O)CC[C@]3(C)CC[C@]12C ... full

====

Molecular target: full-length bacterial NOX5 (Cylindrospermum stagnale, UniProt K9WT99)
Sequence (K9WT99 1-693): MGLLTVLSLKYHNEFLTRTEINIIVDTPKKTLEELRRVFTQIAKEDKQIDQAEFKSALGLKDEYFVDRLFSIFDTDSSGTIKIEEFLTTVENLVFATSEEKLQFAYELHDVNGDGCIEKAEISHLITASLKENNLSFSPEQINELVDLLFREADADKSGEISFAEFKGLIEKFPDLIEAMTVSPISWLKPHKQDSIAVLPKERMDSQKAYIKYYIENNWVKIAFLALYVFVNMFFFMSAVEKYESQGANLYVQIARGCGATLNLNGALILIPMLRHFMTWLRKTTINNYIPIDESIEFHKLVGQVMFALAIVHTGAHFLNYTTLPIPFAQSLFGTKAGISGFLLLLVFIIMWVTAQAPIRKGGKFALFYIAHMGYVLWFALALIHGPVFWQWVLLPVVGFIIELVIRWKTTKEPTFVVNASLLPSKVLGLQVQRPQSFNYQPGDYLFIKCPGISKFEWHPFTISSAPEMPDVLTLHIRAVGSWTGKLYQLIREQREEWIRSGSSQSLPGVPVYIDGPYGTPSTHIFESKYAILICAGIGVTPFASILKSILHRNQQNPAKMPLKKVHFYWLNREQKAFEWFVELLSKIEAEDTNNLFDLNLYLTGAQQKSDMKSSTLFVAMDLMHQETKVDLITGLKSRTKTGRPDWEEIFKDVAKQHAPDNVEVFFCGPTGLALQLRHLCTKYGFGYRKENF
observationType: pKi
The value called pKi is obtained by taking minus log10 of the concentration in mol/L.

Quick one: pKi for c1ccc2c(c1)[I+]c1ccccc1-2 ?
6.01

====

Molecular target: bacterial NOX5 (Cylindrospermum stagnale, UniProt K9WT99)
Test: Initial evaluation on NOX5 membrane preparations
Format: biochemical
Conditions: 100 μM compound, membranes
observationType: inhibition of NOX5 (in words)

Cc1ccc(C(=O)Nc2ccc(S(=O)(=O)O)c3cc(S(=O)(=O)O)cc(S(=O)(=O)O)c23)cc1NC(=O)c1cccc(NC(=O)Nc2cccc(C(=O)Nc3cc(C(=O)Nc4ccc(S(=O)(=O)O)c5cc(S(=O)(=O)O)cc(S(=O)(=O)O)c45)ccc3C)c2)c1 [suramin] ... full
O=c1c2ccccc2[se]n1-c1ccccc1 [ebselen] ... full
CC1=C(O)C(=O)C=C2C1=CC=C1[C@@]2(C)CC[C@@]2(C)[C@@H]3C[C@](C)(C(=O)O)CC[C@]3(C)CC[C@]12C [celastrol] ... full
c1ccc2c(c1)[I+]c1ccccc1-2 [DPI, Diphenylene iodonium] ... full
